# protocol details: Pharmacokinetic assessment in mice (serum, LC-MS/MS)
# Type: in vivo, C57BL/6 mice
# run conditions: female, C57BL/6, mouse, serum; 200 mg/kg single dose, oral gavage
# Method: C57BL/6 mice were treated with lolamcyin at a single dose of 200 mg/kg via IP injection (formulated in 50% DMSO and 50% PEG400) or oral gavage (formulated in 20% DMSO, 30% water, and 50% PEG400) with three mice per time point (0, 15, 30, 45, 60, 120, 240, 480, 960, and 1,440 min). Mice were then sacrificed and serum concentrations of lolamycin were determined by liquid chromatography-tandem mass spectrometry (LC-MS/MS). […] Next, the pharmacokinetic assessment via oral gavage was determined. […]
quantity measured: Cmax (µM)
Numbers only here, please. The scale is µM.

Per the records, this compound ( Cc1cc(-c2c[nH]nc2-c2cccc(OCc3cccc(C#N)c3)c2)cc(C)n1 [Compound 12] ) has Cmax equal to 26.4
